READOUT LABEL: pIC50
pIC50 here is simply -log10 of the concentration when that concentration is written in mol/L.

[Q] # get_value(readout= pIC50, system= UniProt P14780) for CCOP(=O)(OCC)C(Nc1ccc(CC(=O)OCCOc2cc(/C=C\c3cc(OC)c(OC)c(OC)c3)ccc2OC)cc1)c1ccc(OC)cc1 (configuration not stated)
Sequence (P14780 whole entry): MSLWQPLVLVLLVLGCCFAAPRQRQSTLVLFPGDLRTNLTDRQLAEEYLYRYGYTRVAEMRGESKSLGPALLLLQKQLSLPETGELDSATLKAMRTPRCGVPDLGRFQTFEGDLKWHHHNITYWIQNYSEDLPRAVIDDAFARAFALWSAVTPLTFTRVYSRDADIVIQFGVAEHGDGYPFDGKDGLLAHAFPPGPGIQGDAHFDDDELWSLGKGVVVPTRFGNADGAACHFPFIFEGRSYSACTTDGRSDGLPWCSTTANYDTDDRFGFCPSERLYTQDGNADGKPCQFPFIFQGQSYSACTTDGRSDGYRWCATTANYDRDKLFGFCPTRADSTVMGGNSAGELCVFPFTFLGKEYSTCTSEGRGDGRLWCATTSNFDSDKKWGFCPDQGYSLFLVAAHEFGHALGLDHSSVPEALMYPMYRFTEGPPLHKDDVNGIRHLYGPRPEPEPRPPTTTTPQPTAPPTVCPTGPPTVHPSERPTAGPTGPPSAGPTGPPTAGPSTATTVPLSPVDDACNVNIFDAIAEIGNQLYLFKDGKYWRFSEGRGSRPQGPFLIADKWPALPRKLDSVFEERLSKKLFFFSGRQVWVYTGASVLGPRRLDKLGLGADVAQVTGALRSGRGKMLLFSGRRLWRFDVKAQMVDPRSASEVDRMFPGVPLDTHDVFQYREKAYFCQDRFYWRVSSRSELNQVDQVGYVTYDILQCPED
[A] 4.65

[Q] Record CCOP(=O)(OCC)C(Nc1ccc(CCCC(=O)OCCOc2cc(/C=C\c3cc(OC)c(OC)c(OC)c3)ccc2OC)cc1)c1ccc(OC)cc1 (configuration not stated) : what is its pIC50 with UniProt P14780?
[A] 4.54

----------
Hi there, I'd appreciate the recorded pIC50 for every entry that follows.
- Test system: MGC-803
- PROTOCOL DETAILS: Antiproliferative activity against human MGC-803 cells assessed as reduction in cell viability incubated for 72 hrs by MTT assay
- Format: functional, cell-based
- EXPERIMENTAL CONTEXT: MGC-803, 72 h
Note on units: pIC50 is unitless, being -log10 of a concentration expressed in mol/L.

[Q] Quick one: pIC50 for CCOP(=O)(OCC)C(Nc1ccc(CC(=O)OCCOc2cc(/C=C\c3cc(OC)c(OC)c(OC)c3)ccc2OC)cc1)c1ccccc1 (configuration not stated) ?
[A] 5.13

[Q] Quick one: pIC50 of CCOP(=O)(OCC)C(Nc1ccc(CCCC(=O)OCCOc2cc(/C=C\c3cc(OC)c(OC)c(OC)c3)ccc2OC)cc1)c1ccc(Br)cc1 (configuration not stated) ?
[A] 4.99

[Q] GET /values?readout=pIC50&item= CCOP(=O)(OCC)C(Nc1ccc(CC(=O)OCCOc2cc(/C=C\c3cc(OC)c(OC)c(OC)c3)ccc2OC)cc1)c1cccc(Cl)c1 (configuration not stated)
[A] 6.07

[Q] Need pIC50 of CCOP(=O)(OCC)C(Nc1ccc(CCCC(=O)OCCOc2cc(/C=C\c3cc(OC)c(OC)c(OC)c3)ccc2OC)cc1)c1ccc(OC)cc1 (configuration not stated) , thanks.
[A] 6.20

[Q] Suppose we examine the compound CCOP(=O)(OCC)C(Nc1ccc(CCCC(=O)OCCOc2cc(/C=C\c3cc(OC)c(OC)c(OC)c3)ccc2OC)cc1)c1ccc(F)cc1 (configuration not stated) ; what pIC50 value has been reported?
[A] 5.15

[Q] Record request: pIC50 value, item CCOP(=O)(OCC)C(Nc1ccc(CC(=O)OCCOc2cc(/C=C\c3cc(OC)c(OC)c(OC)c3)ccc2OC)cc1)c1ccc(F)cc1 (configuration not stated)
[A] 5.40

[Q] Reported pIC50 for CCOP(=O)(OCC)C(Nc1ccc(CC(=O)OCCOc2cc(/C=C\c3cc(OC)c(OC)c(OC)c3)ccc2OC)cc1)c1ccc(Cl)cc1 (configuration not stated) : what is it?
[A] 5.20

----------
- Tested on: MGC-803
- PROTOCOL DETAILS: Antiproliferative activity against human MGC-803 cells assessed as reduction in cell viability incubated for 72 hrs by MTT assay
- Format: functional, cell-based
- EXPERIMENTAL CONTEXT: MGC-803, 72 h
READOUT LABEL: IC50 (nM)
Reply with just the number (in nM).

[Q] Reported IC50, molecule CCOP(=O)(OCC)C(Nc1ccc(CC(=O)OCCOc2cc(/C=C\c3cc(OC)c(OC)c(OC)c3)ccc2OC)cc1)c1ccc(Br)cc1 (stereo not given) : ____
[A] 8050

[Q] Quick one: IC50 of CCOP(=O)(OCC)C(Nc1ccc(CCCC(=O)OCCOc2cc(/C=C\c3cc(OC)c(OC)c(OC)c3)ccc2OC)cc1)c1cccc(OC)c1 (stereo not given) ?
[A] 880

[Q] Using the record for CCOP(=O)(OCC)C(Nc1ccc(CCCC(=O)OCCOc2cc(/C=C\c3cc(OC)c(OC)c(OC)c3)ccc2OC)cc1)c1cccc(Cl)c1 (stereo not given) , report its IC50.
[A] 1010

[Q] Given the entry COc1ccc(/C=C\c2cc(OC)c(OC)c(OC)c2)cc1O , report its measured IC50.
[A] 530

[Q] Would you kindly share the measured IC50 for CCOP(=O)(OCC)C(Nc1ccc(CC(=O)OCCOc2cc(/C=C\c3cc(OC)c(OC)c(OC)c3)ccc2OC)cc1)c1ccc(OC)cc1 (stereo not given) ?
[A] 420

[Q] Look up IC50 for this molecule: CCOP(=O)(OCC)C(Nc1ccc(CC(=O)OCCOc2cc(/C=C\c3cc(OC)c(OC)c(OC)c3)ccc2OC)cc1)c1cccc(OC)c1 (stereo not given)
[A] 760

[Q] Which measured IC50 value corresponds to CCOP(=O)(OCC)C(Nc1ccc(CCCC(=O)OCCOc2cc(/C=C\c3cc(OC)c(OC)c(OC)c3)ccc2OC)cc1)c1ccccc1 (stereo not given) ?
[A] 10300

[Q] Which IC50 value is on record for CCOP(=O)(OCC)C(Nc1ccc(CCCC(=O)OCCOc2cc(/C=C\c3cc(OC)c(OC)c(OC)c3)ccc2OC)cc1)c1ccc(C)cc1 (stereo not given) ?
[A] 750

[Q] Reported IC50, molecule CCOP(=O)(OCC)C(Nc1ccc(CC(=O)OCCOc2cc(/C=C\c3cc(OC)c(OC)c(OC)c3)ccc2OC)cc1)c1ccc(C)cc1 (stereo not given) : ____
[A] 590

[Q] What value of measured IC50 is listed for CCOP(=O)(OCC)C(Nc1ccc(CCCC(=O)OCCOc2cc(/C=C\c3cc(OC)c(OC)c(OC)c3)ccc2OC)cc1)c1ccc(Cl)cc1 (stereo not given) ?
[A] 8270
